The measurements presented in this section are drawn from ChEMBL document CHEMBL2086252.

# EXPERIMENTAL DETAILS: Neurotoxicity in po dosed Sprague-Dawley albino rat assessed as minimal motor impairment by rotarod test
# Assay type: toxicity, organism-based
# CONDITIONS: in vivo

[
  {
    "COMPOUND": "CCCC(CCC)COC(N)=O",
    "TD50": "> 500 mg/kg"
  },
  {
    "COMPOUND": "CCC(COC(N)=O)C(C)C (racemic)",
    "TD50": "> 500 mg/kg"
  },
  {
    "COMPOUND": "CCC(C)C(CC)COC(N)=O (racemic)",
    "TD50": "291 mg/kg"
  },
  {
    "COMPOUND": "NC(=O)OCCc1ccccc1 [PHENYLETHYL CARBAMATE]",
    "TD50": "< 400 mg/kg"
  },
  {
    "COMPOUND": "NC(=O)OCC(COC(N)=O)c1ccccc1 [FELBAMATE]",
    "TD50": "> 500 mg/kg"
  },
  {
    "COMPOUND": "NC(=O)OC[C@@H](O)c1ccccc1Cl [CARISBAMATE]",
    "TD50": "137 mg/kg"
  }
]
